Below, each entry is listed alongside its reported relative cell count.
# Test system: U-2 OS
# Assay protocol: relative cell count vs DMSO (cell painting) (fraction of DMSO control); higher = more cells remaining (less cytotoxic)
# Test settings: 1.25 µM; 24 h
Measured quantity: relative cell count

| Compound | Result number |
| --- | --- |
| COC1=C(OC)C(=O)c2ccccc2C1=O | 0.895 |
| Cl.Cl.O=C(O)Cn1nnc(-c2ccc(CN(CCCCOc3ccc(CN4CCCC4)cc3)CCc3ccccc3)cc2)n1 | 1.1 |
| O=[N+]([O-])c1cc(Br)c2nsnc2c1Sc1ncnc2nc[nH]c12 | 0.788 |
| O=C(O)CCCc1ccc(N(CCCl)CCCl)cc1 | 0.951 |
| CC1(C)CC[C@]2(C(=O)n3ccnc3)CC[C@]3(C)[C@H](C(=O)C=C4[C@@]5(C)C=C(C#N)C(=O)C(C)(C)[C@@H]5CC[C@]43C)[C@@H]2C1 | 0.22 |
| N#CC(C#N)=NNc1cccc(Cl)c1 | 0.949 |
| CNC(=O)Nc1ccc2c(c1)CC[C@@]21OC(=O)N(CC(=O)N(Cc2ccc(F)cc2)[C@@H](C)C(F)(F)F)C1=O | 0.976 |
| Cn1nnnc1SC1=CS(=O)(=O)c2ccccc21 | 0.834 |
| CN[C@@H]1C[C@H]2O[C@@](C)([C@@H]1OC)n1c3ccccc3c3c4c(c5c6ccccc6n2c5c31)C(=O)NC4 | 0.095 |
| O=c1c2ccccc2[se]n1-c1ccccc1 | 0.995 |
| c1cc(SSc2ccns2)sn1 | 0.816 |
| Nc1c[n+](N2CCOCC2)no1.[Cl-] | 0.814 |
